- ASSAY OVERVIEW: promoters of myeloid differentiation in arrested cells, primary screen, cell-based, GFP/MAC1 double positive, flow cytometry, validation set (AID 588685);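 note: compound exposure lasts four days before antibody staining and flow analysis; 0% = DMSO wells and 100% = 5 µM fulvestrant positive control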
- STATED CONDITIONS: ER-HoxA9 marrow cells, hits give high values, normalized: vehicle 0, fulvestrant 100
Listed below: differentiation response values for each entry.
READOUT KIND: differentiation response (%)

> print(dat)
                                    molecule  recorded.result
 1       COc1ccc(-c2coc3cc(O)cc(O)c3c2=O)cc1            -9.83
 2                        CCC(=O)c1ccc(O)cc1               10
 3  CC[n+]1ccc2cc(OC)c(OC)cc2c1Cc1ccc(OC)c(OC)c1            -1.05
 4  COc1ccc(C=NCC2COc3ccccc3O2)cc1OC (stereo not given)            -5.05
 5             CCc1cc2c3c(c(=O)oc2cc1O)CCCC3                4
 6  COc1ccc(CCN2CCC(Nc3nc4ccccc4n3Cc3ccc(F)cc3)CC2)cc1             10.1
 7  O=C(CCCC(=O)OCC1CCCO1)OCC1CCCO1 (stereo not given)             2.46
 8  COc1cc(C2C(C(=O)c3ccc(C)o3)=C(O)C(=O)N2Cc2cccnc2)ccc1O (stereo not given)            -0.82
 9  COC1=CC(=O)CC(C)C12Oc1c(Cl)c(OC)cc(OC)c1C2=O (stereo not given)            -14.7
10           Cc1cc(C(C)(C)C)cc(C)c1CC1=NCCN1             2.46
11  O=C(CC(C(=O)O)c1c[nH]c2ccccc12)c1ccccc1 (stereo not given)            -5.05
12  CC1(C)OC2OC(C(=O)N/N=C/c3ccccc3F)C3OC(C)(C)OC3C2O1 (stereo not given)            -13.1
13  O=c1[nH]cnc2c1ncn2[C@@H]1O[C@H](CO)[C@@H](O)[C@H]1O            -7.94
14                      O=C1CCCCCN1Cc1ccccc1              8.8
15                    CNS(=O)(=O)c1ccc(C)cc1             -0.2
16  CCc1cc(=O)oc2cc(C)c(CN3CCCC(C)C3)c(O)c12 (stereo not given)              -18
17  Cc1cnc(C(=O)N2CCCC(C(=O)c3ccc(Cl)cc3C)C2)cn1 (stereo not given)              -18
18                   Nc1c2c(nc3ccccc13)CCCC2            -5.73
19  CCCCNc1cc(C(=O)O)cc(S(N)(=O)=O)c1Oc1ccccc1            -9.89
20  CC1CCCc2sc3ncn(N)c(=N)c3c21 (stereo not given)               -4
21              Oc1ccc(COCc2ccccc2)c2cccnc12             40.8
22  CC(NCCC(c1ccccc1)c1ccccc1)c1ccccc1 (stereo not given)            -0.82
23  Cc1ccccc1C(OCCN(C)C)c1ccccc1 (stereo not given)            -22.8
24  CC(C)NCC(O)COc1ccc(CC(N)=O)cc1 (stereo not given)            -2.69
25  Cc1ccc(C(CC(=O)NCc2ccco2)c2ccc(OC(C)C)cc2)cc1 (stereo not given)            -6.66

Data origin: PubChem BioAssay
